Assay: Antiproliferative activity against human MiaPaCa cells assessed as reduction in net protein increase after 48 hrs by SRB assay
Format: functional
Settings: MIA PaCa-2, 48 h

{"columns": ["mol.smiles", "GI50"],
 "data": [
  ["O=C1COc2ccccc2N1CCCn1cc(CO)nn1", "1010 nM"],
  ["CCCc1cn(CCCN2C(=O)COc3ccccc32)nn1", "2600 nM"],
  ["O=C1COc2ccccc2N1CCCn1cc(C2(O)CCCCC2)nn1", "2500 nM"],
  ["O=C1COc2ccccc2N1CCCn1cc(-c2cc3ccccc3c3ccccc23)nn1", "8400 nM"],
  ["CCCCc1cn(CCCN2C(=O)COc3ccccc32)nn1", "2500 nM"],
  ["CCCCCCc1cn(CCCN2C(=O)COc3ccccc32)nn1", "150 nM"],
  ["CCCCCc1ccc(-c2cn(CCCN3C(=O)COc4ccccc43)nn2)cc1", "> 100000 nM"],
  ["COc1cccc2c1C(=O)c1c(O)c3c(c(O)c1C2=O)C[C@@](O)(C(=O)CO)C[C@@H]3O[C@H]1C[C@H](N)[C@H](O)[C@H](C)O1", "97 nM"],
  ["O=C1COc2ccccc2N1CCCn1cc(-c2cccnc2)nn1", "8200 nM"],
  ["O=C1COc2ccccc2N1CCCn1cc(CCCCl)nn1", "12500 nM"]
]}

* * *

Reported GI50 is given for each of the following molecules.
Test: Antiproliferative activity against human MiaPaCa cells assessed as reduction in net protein increase after 48 hrs by SRB assay
Assay type: functional
Details: MIA PaCa-2, 48 h

{"columns": ["mol.smiles", "readout.units", "measurement.qualifier", "GI50"],
 "data": [
  ["COc1ccc2cc(-c3cn(CCCN4C(=O)COc5ccccc54)nn3)ccc2c1", "µM", ">", 100],
  ["O=C1COc2ccccc2N1CCCn1cc(-c2ccccc2)nn1", "µM", "=", 94],
  ["CC(=O)O[C@H]1C(=O)[C@@]2(C)[C@H]([C@H](OC(=O)c3ccccc3)[C@]3(O)C[C@H](OC(=O)[C@H](O)[C@@H](NC(=O)c4ccccc4)c4ccccc4)C(C)=C1C3(C)C)[C@]1(OC(C)=O)CO[C@@H]1C[C@@H]2O", "µM", "=", 0.056],
  ["Cc1ccc(-c2cn(CCCN3C(=O)COc4ccccc43)nn2)cc1", "µM", ">", 100],
  ["COc1ccc(-c2cn(CCCN3C(=O)COc4ccccc43)nn2)cc1", "µM", "=", 15.7],
  ["O=C1COc2ccccc2N1CCCn1cc(-c2ccccn2)nn1", "µM", "=", 5.8]
]}

* * *

Reported GI50 is given for each of the following compounds.
System: HeLa
Assay: Antiproliferative activity against human HeLa cells assessed as reduction in net protein increase after 48 hrs by SRB assay
Assay type: functional
assay.endpoint: GI50

{"columns": ["mol.smiles", "assay.endpoint", "result"],
 "data": [
  ["O=C1COc2ccccc2N1CCCn1cc(-c2cc3ccccc3c3ccccc23)nn1", "GI50", "> 100 µM"],
  ["CCCCCc1ccc(-c2cn(CCCN3C(=O)COc4ccccc43)nn2)cc1", "GI50", "> 100 µM"],
  ["O=C1COc2ccccc2N1CCCn1cc(-c2cccnc2)nn1", "GI50", "> 100 µM"],
  ["CCCc1cn(CCCN2C(=O)COc3ccccc32)nn1", "GI50", "23.2 µM"],
  ["COc1ccc2cc(-c3cn(CCCN4C(=O)COc5ccccc54)nn3)ccc2c1", "GI50", "> 100 µM"]
]}
